Assay: Plasma concentration in BALB/c mouse at 2.5 mg/kg, iv at 4 hrs by LC/MS-MS analysis
Type: ADME, organism-based

{"compound": "Nc1nccc(-c2c[nH]c3ncccc23)n1 [MERIOLIN 1]", "units label": "ng/mL", "concentration at 4 h": 0.8}

----------
Entries annotated with measured Vd
Experiment: Volume of distribution in BALB/c mouse at 2.5 mg/kg, iv by LC/MS-MS analysis
Format: ADME, organism-based
Conditions: in vivo
measurement type: Vd (L/kg)

{"record smiles": "Nc1nccc(-c2c[nH]c3ncccc23)n1", "quantitative readout": 36.5}
{"record smiles": "Nc1nccc(-c2c[nH]c3ncc(-c4ccc(F)cc4)cc23)n1", "quantitative readout": 11.3}

----------
Entries annotated with measured clearance
Assay: Clearance in BALB/c mouse at 2.5 mg/kg, iv by LC/MS-MS analysis
Assay type: ADME, organism-based
Conditions: in vivo

{"record smiles": "Nc1nccc(-c2c[nH]c3ncc(-c4ccc(F)cc4)cc23)n1", "clearance (mL/min/kg)": 51.7}
{"record smiles": "Nc1nccc(-c2c[nH]c3ncccc23)n1", "clearance (mL/min/kg)": 897}

----------
Tested on: MCF7
Experiment: Antiproliferative activity against human MCF7 cells
pIC50: −log10 of the molar value.
Entries annotated with measured pIC50
measurement type: pIC50

{"compound": "COc1ccnc2[nH]cc(-c3ccnc(N)n3)c12 [MERIOLIN 3]", "quantitative readout": 6.70}
{"compound": "Nc1nccc(-c2c[nH]c3ncccc23)n1 [MERIOLIN 1]", "quantitative readout": 5.22}

----------
Molecular target: CDK2/Cyclin A2 (Homo sapiens) (UniProt P24941+P20248)
Details: at 500 nM
Description: Inhibition of CDK2/cyclin A (unknown origin) at 500 nM using histone H1 as substrate after 30 mins in presence of [33P]-gamma-ATP relative to control
Entries annotated with measured inhibition

{"record smiles": "Nc1nccc(-c2c[nH]c3ncc(-c4cc5ccccc5o4)cc23)n1", "units label": "%", "inhibition": 87.9}
{"record smiles": "CC(=O)Nc1ccc(S(=O)(=O)n2cc(-c3ccnc(N)n3)c3cccnc32)cc1", "units label": "%", "inhibition": 36.3}
{"record smiles": "c1cnc2[nH]cc(-c3ccnc(N4CCCC4)n3)c2c1", "units label": "%", "inhibition": 78.3}
{"record smiles": "COc1ccc2[nH]c(-c3cnc4[nH]cc(-c5ccnc(N)n5)c4c3)cc2c1", "units label": "%", "inhibition": 90.2}
{"record smiles": "CSc1ccccc1-c1cnc2[nH]cc(-c3ccnc(N)n3)c2c1", "units label": "%", "inhibition": 78.7}
{"record smiles": "COc1ccc(CCNc2nccc(-c3c[nH]c4ncccc34)n2)cc1", "units label": "%", "inhibition": 97.7}
{"record smiles": "Nc1nccc(-c2cn(S(=O)(=O)c3ccc4c(c3)OCCO4)c3ncccc23)n1", "units label": "%", "inhibition": 48.7}
{"record smiles": "Nc1nccc(-c2cn(S(=O)(=O)c3ccc(F)cc3)c3ncccc23)n1", "units label": "%", "inhibition": 22.6}
{"record smiles": "c1ccc2c(CCNc3nccc(-c4c[nH]c5ncccc45)n3)c[nH]c2c1", "units label": "%", "inhibition": 89.7}
{"record smiles": "Nc1nccc(-c2c[nH]c3ncc(-c4cccc(C(F)(F)F)c4)cc23)n1", "units label": "%", "inhibition": 93.4}
{"record smiles": "Cn1cncc1S(=O)(=O)n1cc(-c2ccnc(N)n2)c2cccnc21", "units label": "%", "inhibition": 55.2}
{"record smiles": "COc1ccc2ccccc2c1-c1cnc2[nH]cc(-c3ccnc(N)n3)c2c1", "units label": "%", "inhibition": 24.2}
{"record smiles": "Nc1nccc(-c2cn(S(=O)(=O)c3ccc(OC(F)(F)F)cc3)c3ncccc23)n1", "units label": "%", "inhibition": 31.3}
{"record smiles": "Nc1nccc(-c2c[nH]c3ncc(-c4cccc5ccccc45)cc23)n1", "units label": "%", "inhibition": 79.2}
{"record smiles": "Nc1nccc(-c2cn(S(=O)(=O)c3ccc(C(F)(F)F)cc3)c3ncccc23)n1", "units label": "%", "inhibition": 28.4}
{"record smiles": "CN1CCN(c2nccc(-c3c[nH]c4ncccc34)n2)CC1", "units label": "%", "inhibition": 71.6}
{"record smiles": "Nc1nccc(-c2cn(S(=O)(=O)c3ccc(Br)cc3)c3ncccc23)n1", "units label": "%", "inhibition": 28.1}
{"record smiles": "c1cnc2[nH]cc(-c3ccnc(N4CCCCC4)n3)c2c1", "units label": "%", "inhibition": 74}
{"record smiles": "c1ccc(CCNc2nccc(-c3c[nH]c4ncccc34)n2)cc1", "units label": "%", "inhibition": 92.5}
{"record smiles": "COc1ccc(CCNc2nccc(-c3c[nH]c4ncccc34)n2)cc1OC", "units label": "%", "inhibition": 89.2}
{"record smiles": "Cc1cccc(-c2cnc3[nH]cc(-c4ccnc(N)n4)c3c2)c1", "units label": "%", "inhibition": 84.8}
{"record smiles": "c1cnc2[nH]cc(-c3ccnc(N4CCOCC4)n3)c2c1", "units label": "%", "inhibition": 73.3}
{"record smiles": "CCc1ccccc1-c1cnc2[nH]cc(-c3ccnc(N)n3)c2c1", "units label": "%", "inhibition": 79.3}
{"record smiles": "Nc1nccc(-c2c[nH]c3ncc(-c4cc5ccccc5s4)cc23)n1", "units label": "%", "inhibition": 92}
{"record smiles": "Nc1nccc(-c2c[nH]c3ncc(-c4ccsc4)cc23)n1", "units label": "%", "inhibition": 95.1}

Data origin: ChEMBL document CHEMBL4028900
